Assay: Half life in nude mouse
Assay type: ADME, organism-based
Details: in vivo
test readout: half-life (h)
Reply with just the number (in h).

# example entries with known answers
Cl.NC(=O)Nc1sc(-c2cccc(F)c2F)cc1C(=O)N[C@H]1CCCNC1 ... 1.2
NC(=O)Nc1cc(-c2cccc(F)c2)sc1C(=O)N[C@H]1CCCNC1 ... 1.1
Cl.NC(=O)Nc1sc(-c2ccc(F)cc2)cc1C(=O)N[C@H]1CCCNC1 ... 1.2
Cl.NC(=O)Nc1cc(-c2ccc(F)cc2)sc1C(=O)N[C@H]1CCCNC1 ... 1.2
Cl.NC(=O)Nc1sc(-c2cccc(F)c2)cc1C(=O)N[C@H]1CCCNC1 ... 1

Lab note: next compound to report on.
Q. Could you share which half-life value was measured for `Cl.NC(=O)Nc1cc(-c2cccc(F)c2F)sc1C(=O)N[C@H]1CCCNC1` ?
A. 1.4

---

Biological target: Serine/threonine-protein kinase Chk1 (Homo sapiens, UniProt O14757)
Assay: Inhibition of human recombinant CHK1 expressed in insect cells using biotinylaminohexanoyl-KKVSRSGLYRSPMPENLNRPR as substrate after 2 hrs by scintillation proximity assay
Measured IC50 of individual entries
Don't forget the unit after the value.

# example entries with known answers
NC(=O)Nc1cc(-c2ccccc2)sc1C(=O)N[C@H]1CCCNC1 ... 10 nM
NC(=O)Nc1cc(-c2cccc(Cl)c2)sc1C(=O)N[C@H]1CCCNC1 ... 8 nM
N#Cc1ccc(-c2cc(NC(N)=O)c(C(=O)N[C@H]3CCCNC3)s2)cc1 ... 6 nM
NC(=O)Nc1sc(-c2ccc(Cl)c(Cl)c2)cc1C(=O)N[C@H]1CCCNC1 ... 30 nM
Cl.NC(=O)Nc1cc(-c2cccc(F)c2F)sc1C(=O)N[C@H]1CCCNC1 ... 20 nM

Q. Could you share which IC50 value was measured for `NC(=O)Nc1cc(-c2cc(F)cc(F)c2)sc1C(=O)N[C@H]1CCCNC1` ?
A. 10 nM

Q. Could you share which IC50 value was measured for `Cl.NC(=O)Nc1cc(-c2ccc(F)cc2)sc1C(=O)N[C@H]1CCCNC1` ?
A. 6 nM

Q. Could you share which IC50 value was measured for `N#Cc1cccc(-c2cc(C(=O)N[C@H]3CCCNC3)c(NC(N)=O)s2)c1` ?
A. 9 nM

Q. Could you share which IC50 value was measured for `NC(=O)Nc1sc(-c2cc(F)cc(F)c2)cc1C(=O)N[C@H]1CCCNC1` ?
A. 12 nM

Q. Could you share which IC50 value was measured for `NC(=O)Nc1sc(-c2ccc(F)cc2F)cc1C(=O)N[C@H]1CCCNC1` ?
A. 13 nM

---

Measured pIC50 of individual entries
Target: Serine/threonine-protein kinase Chk1 (Homo sapiens, UniProt O14757)
Sequence (O14757 whole entry): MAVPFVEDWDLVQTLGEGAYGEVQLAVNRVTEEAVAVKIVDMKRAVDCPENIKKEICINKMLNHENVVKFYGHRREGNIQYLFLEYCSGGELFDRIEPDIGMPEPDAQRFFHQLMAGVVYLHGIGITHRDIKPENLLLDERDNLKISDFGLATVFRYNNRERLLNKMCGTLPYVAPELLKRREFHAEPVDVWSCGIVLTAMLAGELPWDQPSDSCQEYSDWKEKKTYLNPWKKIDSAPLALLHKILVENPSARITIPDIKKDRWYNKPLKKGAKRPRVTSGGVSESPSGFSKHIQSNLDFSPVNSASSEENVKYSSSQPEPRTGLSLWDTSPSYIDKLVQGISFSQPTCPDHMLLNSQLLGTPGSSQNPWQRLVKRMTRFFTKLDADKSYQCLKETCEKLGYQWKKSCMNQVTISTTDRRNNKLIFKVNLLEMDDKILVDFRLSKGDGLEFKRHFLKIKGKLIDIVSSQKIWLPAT
Experiment: Inhibition of human recombinant CHK1 expressed in insect cells using biotinylaminohexanoyl-KKVSRSGLYRSPMPENLNRPR as substrate after 2 hrs by scintillation proximity assay
In simple prose, pIC50 is minus the logarithm base ten of a concentration in moles per litre.

# example entries with known answers
Cl.NC(=O)Nc1sc(-c2cccc(F)c2F)cc1C(=O)N[C@H]1CCCNC1 ... 7.96
NC(=O)Nc1cc(-c2ccccc2F)sc1C(=O)N[C@H]1CCCNC1 ... 7.70
NC(=O)Nc1cc(-c2ccc(Cl)c(Cl)c2)sc1C(=O)N[C@H]1CCCNC1 ... 7.40
N#Cc1cccc(-c2cc(NC(N)=O)c(C(=O)N[C@H]3CCCNC3)s2)c1 ... 8.15

Q. GET /values?readout=pIC50&system=Serine/threonine-protein kinase Chk1 (Homo sapiens, UniProt O14757)&item= `NC(=O)Nc1cc(-c2ccc(F)cc2F)sc1C(=O)N[C@H]1CCCNC1`
A. 7.52

---

Assay: Fraction unbound in human plasma
Type: ADME, cell-free
test readout: fraction unbound
Reply: number alone, nothing else.

# example entries with known answers
NC(=O)Nc1sc(-c2ccccc2)cc1C(=O)N[C@H]1CCCNC1 ... 0.077
NC(=O)Nc1cc(-c2ccccc2)sc1C(=O)N[C@H]1CCCNC1 ... 0.32

Lab note: next compound to report on.
Q. Could you share which fraction unbound value was measured for `NC(=O)Nc1cc(-c2cccc(F)c2)sc1C(=O)N[C@H]1CCCNC1` ?
A. 0.26

---

Assay: Half life in dog
Type: ADME, organism-based, Canis lupus familiaris
Details: in vivo
test readout: half-life (h)
Reply with just the number (in h).

Q. Could you share which half-life value was measured for `NC(=O)Nc1cc(-c2cccc(F)c2)sc1C(=O)N[C@H]1CCCNC1` ?
A. 1.5

---

Assay: Clearance in nude mouse
Assay type: ADME, organism-based
Conditions: in vivo
Respond with y for clearance values of 80 mL/min/kg and above, n for values below.

As a guide, the following entries are already answered.
Cl.NC(=O)Nc1cc(-c2ccc(F)cc2)sc1C(=O)N[C@H]1CCCNC1 ... y
Cl.NC(=O)Nc1cc(-c2cccc(F)c2F)sc1C(=O)N[C@H]1CCCNC1 ... y
Cl.NC(=O)Nc1sc(-c2cccc(F)c2)cc1C(=O)N[C@H]1CCCNC1 ... n
NC(=O)Nc1cc(-c2cccc(F)c2)sc1C(=O)N[C@H]1CCCNC1 ... n

Q. Does `Cl.NC(=O)Nc1sc(-c2cccc(F)c2F)cc1C(=O)N[C@H]1CCCNC1` have a reported clearance of at least 80 mL/min/kg?
A. n

---

Assay: Half life in rat
Assay type: ADME, organism-based
Conditions: in vivo
test readout: half-life (h)
Reply with just the number (in h).

Q. Could you share which half-life value was measured for `NC(=O)Nc1cc(-c2cccc(F)c2)sc1C(=O)N[C@H]1CCCNC1` ?
A. 5.2

---

Target: CYP450 (Homo sapiens, UniProt P04798+P05177+P05181+P08684+P10632+P10635+P11509+P11712+P13584+P20813+P20815+P20853+P24462+P24903+P33260+P33261+P51589+P78329+P98187+Q02928+Q08477+Q16678+Q16696+Q5TCH4+Q6VVX0+Q7Z449+Q8TAV3+Q96SQ9+Q9HB55)
Assay: Inhibition of CYP450
Type: ADME
pIC50: −log10 of the molar value.
test readout: pIC50

Q. Could you share which pIC50 value was measured for `NC(=O)Nc1cc(-c2cccc(F)c2)sc1C(=O)N[C@H]1CCCNC1` ?
A. < 5.00
